Assignment: determine reported inhibition at 48 h, 25 ug/ml for the given compounds.
# Assay Notes: Cytotoxicity against mouse RAW264.7 cells assessed as inhibition of cell growth at 25 ug/ml incubated for 48 hrs by MTT assay relative to control
# Type: toxicity, cell-based
# Experimental Context: at 25 µg/mL
Give your result in % as a bare value.

Fill in the blank: the reported inhibition at 48 h, 25 ug/ml of "CCc1cc(-c2nc(C)c(C(=O)OCc3cn(-c4cccc(OC)c4)nn3)s2)ccn1" is ____.
26

Fill in the blank: the reported inhibition at 48 h, 25 ug/ml of "CCCc1cc(-c2nc(C)c(C(=O)OCc3cn(-c4cccc(OC)c4)nn3)s2)ccn1" is ____.
25.7

Fill in the blank: the reported inhibition at 48 h, 25 ug/ml of "CCc1cc(-c2nc(C)c(C(=O)OCc3cn(-c4cccc(C)c4)nn3)s2)ccn1" is ____.
30.1

Fill in the blank: the reported inhibition at 48 h, 25 ug/ml of "CCc1ccc(-n2cc(COC(=O)c3sc(-c4ccnc(CC)c4)nc3C)nn2)cc1" is ____.
29.2

Fill in the blank: the reported inhibition at 48 h, 25 ug/ml of "CCCc1cc(-c2nc(C)c(C(=O)OCc3cn(-c4ccc(CC)cc4)nn3)s2)ccn1" is ____.
27.2

Fill in the blank: the reported inhibition at 48 h, 25 ug/ml of "CCc1cc(-c2nc(C)c(C(=O)OCc3cn(-c4ccc(C)cc4C)nn3)s2)ccn1" is ____.
21.9
